// provenance: PubChem BioAssay (NCI)

System: MOLT-4 leukemia
procedure-details: NCI-60 one-dose screen, 48 h (100 = growth as untreated, 0 = no growth, -100 = all killed)
condition-notes: 10 µM unless noted
Compounds without any hit were thinned out: in the full panel of roughly 83,000, 20% have a hit.
Rule: growth of 70% or more gives Yes; anything lower gives No.

[
  {
    "compound": "CCOC(=O)C1=C(C)N=C2Sc3cccc(OC)c3N2[C@H]1c1ccccn1",
    "target-system": "MOLT-4 leukemia",
    "label": "Yes"
  },
  {
    "compound": "CNC(=O)c1cnc(C)nc1-c1cc(C(C)(C)C)c(O)c(C(C)(C)C)c1",
    "target-system": "MOLT-4 leukemia",
    "label": "Yes"
  },
  {
    "compound": "COc1cc2c(cc1OCCCCCCN1CCN(c3ncnc4ccccc34)CC1)N=CC1CCCN1C2=O (centres undefined)",
    "target-system": "MOLT-4 leukemia",
    "label": "No"
  },
  {
    "compound": "O=C(Nc1cn[nH]c1-c1nc2ccc(CN3CCOCC3)cc2[nH]1)NC1CC1",
    "target-system": "MOLT-4 leukemia",
    "label": "No"
  },
  {
    "compound": "Cc1c(NC(=O)OC[C@@H]2COCCN2)cn2ncnc(Nc3ccc4c(cnn4Cc4cccc(F)c4)c3)c12",
    "target-system": "MOLT-4 leukemia",
    "label": "No"
  },
  {
    "compound": "O=C(Nc1ccc(Nc2ncnc3sc4c(c23)CCOC4)cc1)Nc1ccc(Cl)c(C(F)(F)F)c1",
    "target-system": "MOLT-4 leukemia",
    "label": "Yes"
  },
  {
    "compound": "CCCCCCCCCCCC[n+]1ccccc1",
    "target-system": "MOLT-4 leukemia",
    "label": "No"
  },
  {
    "compound": "Cc1cc(Nc2cc(N3CCN(C)CC3)nc(Sc3ccc(NC(=O)C4CC4)cc3)n2)n[nH]1",
    "target-system": "MOLT-4 leukemia",
    "label": "No"
  },
  {
    "compound": "Nc1nc(=S)c2ncn(C3OC(COC(=O)c4ccc(Cl)cc4)C(OC(=O)c4ccc(Cl)cc4)C3OC(=O)c3ccc(Cl)cc3)c2[nH]1 (centres undefined)",
    "target-system": "MOLT-4 leukemia",
    "label": "No"
  },
  {
    "compound": "Cc1ccc(NC(=O)NC(=O)CSc2nc3ccccc3nc2C)cc1",
    "target-system": "MOLT-4 leukemia",
    "label": "Yes"
  },
  {
    "compound": "COc1cc2c(cc1O)c(=O)n(CCN(C)C)c1c3cc4c(cc3ncc21)OCO4",
    "target-system": "MOLT-4 leukemia",
    "label": "No"
  },
  {
    "compound": "N#CCNC(=O)c1ccc(-c2ccnc(Nc3ccc(N4CCOCC4)cc3)n2)cc1",
    "target-system": "MOLT-4 leukemia",
    "label": "No"
  },
  {
    "compound": "Cc1c(N)ccc(-c2ccc(N)c(C)c2S(=O)(=O)O)c1S(=O)(=O)O",
    "target-system": "MOLT-4 leukemia",
    "label": "Yes"
  },
  {
    "compound": "Cc1cc(N2CCOCC2)nc(N(CCNc2ccnc3cc(Cl)ccc23)Cc2cccs2)n1",
    "target-system": "MOLT-4 leukemia",
    "label": "No"
  },
  {
    "compound": "CC(=O)Nc1cccc(-n2c(=O)n(C3CC3)c(=O)c3c(Nc4ccc(I)cc4F)n(C)c(=O)c(C)c32)c1",
    "target-system": "MOLT-4 leukemia",
    "label": "No"
  },
  {
    "compound": "CCCCCCCC12Cc3ccccc3C1=Nc1c(c3ccccc3n1C)C2=O (centres undefined)",
    "target-system": "MOLT-4 leukemia",
    "label": "Yes"
  },
  {
    "compound": "COC(=O)[C@@H](NC(=O)[C@@H](OC)[C@@H]1Cc2cc3cc(OC4CC(OC5CC(O)C(O)C(C)O5)C(O)C(C)O4)c(C)c(O)c3c(O)c2C(=O)[C@H]1OC1CC(OC2CC(OC3CC(C)(O)C(O)C(C)O3)C(O)C(C)O2)C(O)C(C)O1)C(C)C (some centres undefined)",
    "target-system": "MOLT-4 leukemia",
    "label": "No"
  },
  {
    "compound": "Ic1ccccc1-c1ccccc1",
    "target-system": "MOLT-4 leukemia",
    "label": "Yes"
  }
]
